# credit: ChEMBL document CHEMBL1201862

tested on: SF-539; assay: NCI tumour cell line growth inhibition, 48 h
The source made the active and inactive calls. Rule as the data show it: active = GI50 up to about 1.1 µM and inactive = higher. Non-standard residues stand in square brackets, D forms with d. Residues, ends and D or L forms follow the SMILES beside them. *: point of attachment. Ac5c = NC1(C(=O)O)CCCC1; Cbz = O=C(OCc1ccccc1)*; Boc = CC(C)(C)OC(=O)*; tBu = CC(C)(C)*
ASSAY READOUT: GI50

// query Can you look up the measured GI50 of "Cn1c2ccccc2n2c(=O)c3c(c(C#N)c12)CCCC3" for me?
// result > 100 µM (inactive)

// query // repeat for CC(=O)NC(Cc1ccc(OP(=O)(OCc2ccc([N+](=O)[O-])o2)N(C)CCCCCl)cc1)C(=O)NC(C)c1ccc(OCC2CCCCC2)c(C(N)=O)c1 (configuration not stated) and report
// result 2.08 µM (inactive)

// query Also check C=C1CC(C)(COc2ccc3ccc(=O)oc3c2)OC1=O (configuration not stated)
// result 2.65 µM (inactive)

// query Same read-out for "O=C(Cn1c2ccc(Br)cc2c2nc3ccccc3nc21)NNC(=O)NC1CCCCC1" ?
// result > 100 µM (inactive)

// query Next: "O=C1Nc2ccccc2/C1=N/Nc1ccccc1Cl"
// result 29 µM (inactive)

// query Cool, now "COc1cc([N+](=O)[O-])ccc1NC1=CC(=O)CCC1"
// result > 100 µM (inactive)

// query Check COC(=O)C1(NC(=O)C(Cc2ccccc2)NC(=O)C(NC(=O)C(CCCCNC(=O)OC(C)(C)C)NC(=O)C(Cc2c[nH]c3ccccc23)NC(=O)C(Cc2ccccc2)NC(=O)OCc2ccccc2)C(C)OC(C)(C)C)CCCC1 (configuration not stated) (Cbz-FWK(Boc)T(tBu)F[Ac5c]-OMe; configuration not given here) too.
// result > 10 µM (inactive)

// query Likewise for "CC(C)c1cccc(C(C)C)c1NC(=O)CCC(=O)NN" ?
// result > 100 µM (inactive)

// query Also CC(=O)C1CC2(c3ccccc3)C(=O)c3ccccc3N2O1 (configuration not stated) ?
// result > 100 µM (inactive)

// query Same lookup for COc1ccc2c(c1)CCCN1CCc3ccccc3C21 (configuration not stated) , please.
// result 28.6 µM (inactive)

// query Try this compound next: "Cc1c(-c2ccccc2)[nH]c2cc(Cl)ccc2c1=O"
// result 39.8 µM (inactive)

// query Now try "Cc1ccc2c(O)cc(-c3ccc(Cl)cc3)nc2n1" .
// result 5.16 µM (inactive)
